Ref: patent US20090117083A1

# Experimental Target: α-L-fucosidase (Bos taurus)
# Construct: purchased Sigma
# Sequence (Q2KIM0 23-468): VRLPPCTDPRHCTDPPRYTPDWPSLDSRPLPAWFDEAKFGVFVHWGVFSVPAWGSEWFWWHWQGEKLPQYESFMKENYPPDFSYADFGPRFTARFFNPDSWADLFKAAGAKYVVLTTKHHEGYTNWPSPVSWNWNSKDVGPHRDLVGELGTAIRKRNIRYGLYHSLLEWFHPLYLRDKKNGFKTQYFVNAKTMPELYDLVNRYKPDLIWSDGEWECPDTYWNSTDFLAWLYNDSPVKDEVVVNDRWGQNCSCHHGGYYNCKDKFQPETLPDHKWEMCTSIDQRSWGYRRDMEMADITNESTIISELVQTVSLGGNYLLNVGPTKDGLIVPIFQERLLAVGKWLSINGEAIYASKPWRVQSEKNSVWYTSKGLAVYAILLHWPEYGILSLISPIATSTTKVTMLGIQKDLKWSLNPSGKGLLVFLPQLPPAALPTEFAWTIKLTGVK
# Assay: Glycosidase inhibition: α-L-fucosidase
# Format: biochemical, Bovine
# Assay Conditions: 1 mg/ml; read-out: % inhibition, α-fucosidase
Quantity Name: inhibition at 1000 µg/mL (%)
Give the number; % is assumed, so skip it.

Request - read-out inhibition at 1000 µg/mL | tested on α-L-fucosidase (Bos taurus) | compound COc1cc([C@H]2N[C@H](CO)[C@@H](O)[C@@H]2O)ccc1O [Compound 65, PLB2]
-4

Record OCC1N[C@H](CO)[C@@H](O)[C@@H]1O (some centres unmarked) [DMDP] : what is its inhibition at 1000 µg/mL with α-L-fucosidase (Bos taurus)?
-4

Requested read-out inhibition at 1000 µg/mL, target or system α-L-fucosidase (Bos taurus), entry OC[C@H]1N[C@H](c2ccc(O)cc2)[C@@H](O)[C@@H]1O [Compound 36, PLB1]
13

State its inhibition at 1000 µg/mL on α-L-fucosidase (Bos taurus): OCCN1[C@H](CO)[C@@H](O)[C@H](O)[C@H]1CO [N-hydroxyethyl DMDP]
-4

Form entry - test system: α-L-fucosidase (Bos taurus); read-out: inhibition at 1000 µg/mL; compound: OCCN1C[C@@H](O)[C@H](O)[C@H]1CO [Compound 55]
-7

----------
# Experimental Target: α-D-glucosidase (Oryza sativa subsp. japonica, UniProt Q653V7)
# Construct: purchased Sigma
# Sequence (Q653V7 34-885): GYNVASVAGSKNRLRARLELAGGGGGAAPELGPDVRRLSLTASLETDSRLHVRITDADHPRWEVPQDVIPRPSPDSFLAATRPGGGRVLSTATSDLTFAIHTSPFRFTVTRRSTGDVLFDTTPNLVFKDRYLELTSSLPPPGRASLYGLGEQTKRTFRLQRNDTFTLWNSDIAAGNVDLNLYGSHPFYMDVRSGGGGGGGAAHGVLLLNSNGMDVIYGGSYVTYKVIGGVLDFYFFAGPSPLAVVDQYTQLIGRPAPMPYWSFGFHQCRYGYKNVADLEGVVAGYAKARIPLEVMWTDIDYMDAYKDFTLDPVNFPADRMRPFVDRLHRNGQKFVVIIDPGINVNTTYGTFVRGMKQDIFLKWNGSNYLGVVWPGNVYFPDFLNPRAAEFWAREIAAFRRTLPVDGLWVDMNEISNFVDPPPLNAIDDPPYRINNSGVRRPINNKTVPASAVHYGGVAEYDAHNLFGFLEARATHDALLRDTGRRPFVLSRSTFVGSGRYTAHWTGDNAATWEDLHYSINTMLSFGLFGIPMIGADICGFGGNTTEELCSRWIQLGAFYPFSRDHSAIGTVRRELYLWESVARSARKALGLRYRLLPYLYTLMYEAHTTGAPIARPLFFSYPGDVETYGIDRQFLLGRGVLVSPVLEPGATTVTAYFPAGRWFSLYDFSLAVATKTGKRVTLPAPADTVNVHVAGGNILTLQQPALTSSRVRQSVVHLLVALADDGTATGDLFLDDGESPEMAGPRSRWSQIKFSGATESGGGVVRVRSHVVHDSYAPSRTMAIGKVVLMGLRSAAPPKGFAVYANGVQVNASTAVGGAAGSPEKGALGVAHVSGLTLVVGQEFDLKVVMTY
# Assay: Glycosidase inhibition: α-D-glucosidase, rice
# Assay type: biochemical, rice (Oryza sativa)
# Assay Conditions: 1 mg/ml; read-out: % inhibition, gluc (rice)
Can you tell me inhibition at 1000 µg/mL for the items I'm about to list?
Respond numerically; units are % and should not be typed.

So what's the measured inhibition at 1000 µg/mL for this one? OC[C@@H]1[C@@H](O)[C@H](O)[C@H]2[C@@H](O)[C@@H](O)CN21 [7-epi-casuarine (11), 7-epi-casuarine]
73

Which value of inhibition at 1000 µg/mL has been reported for OC[C@H]1[C@@H](O)[C@H](O)[C@@H]2[C@@H](O)[C@H](O)CN21 [Compound 21, 3,6,7,7a-tetraepi-casuarine] in the records?
46

Which inhibition at 1000 µg/mL is listed for OC[C@H]1[C@@H](O)[C@H](O)[C@H]2[C@@H](O)[C@H](O)CN21 [Compound 12, 3,6,7-triepi-casuarine] ?
0

Give the measured inhibition at 1000 µg/mL of OC[C@H]1[C@@H](O)[C@H](O)[C@H]2[C@H](O)[C@@H](O)CN21 [3-epi-casuarine (14), 3-epi-casuarine] .
13

Entry under review: O[C@H]1[C@H](O)[C@@H](O)CN2CC[C@H](O)[C@H]12 [Castanospermine (20), Castanospermine, reference compound] . Reported inhibition at 1000 µg/mL?
77

For the molecule shown here, OC[C@H]1[C@@H](O)[C@H](O)[C@H]2[C@@H](O)[C@@H](O)CN21 [3,7-diepi-casuarine (10)] , give the reported inhibition at 1000 µg/mL.
7

Dear colleague, I am looking for the recorded inhibition at 1000 µg/mL of the following molecule: OC[C@H]1[C@@H](O)[C@H](O)[C@@H]2[C@@H](O)[C@@H](O)CN21 [Compound 22, 3,7,7a-triepi-casuarine]
0

If you can, please state the reported inhibition at 1000 µg/mL value of OC[C@@H]1[C@@H](O)[C@H](O)[C@H]2[C@H](O)[C@@H](O)CN21 .
76

----------
# Experimental Target: α-D-glucosidase (Saccharomyces cerevisiae)
# Construct: purchased Sigma
# Sequence (P53341 whole entry): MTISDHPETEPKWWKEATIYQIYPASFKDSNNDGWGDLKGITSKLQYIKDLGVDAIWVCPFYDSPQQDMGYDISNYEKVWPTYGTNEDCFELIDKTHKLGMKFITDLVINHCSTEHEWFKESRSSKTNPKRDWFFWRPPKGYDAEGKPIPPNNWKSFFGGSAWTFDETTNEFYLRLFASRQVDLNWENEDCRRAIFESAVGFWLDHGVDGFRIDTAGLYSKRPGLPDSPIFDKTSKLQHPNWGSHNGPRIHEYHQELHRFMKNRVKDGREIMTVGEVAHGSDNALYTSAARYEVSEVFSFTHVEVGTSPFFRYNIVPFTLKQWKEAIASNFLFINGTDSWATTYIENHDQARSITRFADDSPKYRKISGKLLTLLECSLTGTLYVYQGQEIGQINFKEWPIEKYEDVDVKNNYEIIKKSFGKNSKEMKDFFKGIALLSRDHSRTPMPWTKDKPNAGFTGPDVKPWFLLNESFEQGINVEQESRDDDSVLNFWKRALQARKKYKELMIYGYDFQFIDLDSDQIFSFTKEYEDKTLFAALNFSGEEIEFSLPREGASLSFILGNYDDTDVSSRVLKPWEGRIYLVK
# Assay: Glycosidase inhibition (p-nitrophenyl substrate): α-D-glucosidase, yeast
# Type: biochemical, Saccharomyces cerevisiae (Baker's yeast)
# Assay Conditions: 1 mg/ml; read-out: % inhibition, α-gluc (yeast)
The threshold is inclusive: inhibition at 1000 µg/mL of exactly 20% counts as condition met; values below receive condition not met.

Say whether OC[C@H]1N[C@H](c2ccc(O)cc2)[C@@H](O)[C@@H]1O shows inhibition at 1000 µg/mL of 20% or more.
condition not met

Form field: inhibition at 1000 µg/mL at least 20%? Entry: O[C@@H]1[C@@H]2[C@@H](O)[C@H](O)[C@H](O)CN2C[C@H]1O [Compound 35, 2-α-hydroxy-6-epi-castanospermine]
condition not met

Check if inhibition at 1000 µg/mL >= 20% (inclusive). Item: OCC1N[C@H](CO)[C@@H](O)[C@@H]1O (some centres unmarked)
condition met

Reported inhibition at 1000 µg/mL at or above 20%? O[C@@H]1[C@@H]2[C@@H](O)[C@H](O)[C@@H](O)CN2C[C@@H]1O [Compound 44, 2-β-hydroxycastanospermine]
condition not met

Could you please find out whether OCCN1[C@H](CO)[C@@H](O)[C@H](O)[C@H]1CO [N-hydroxyethyl DMDP] has inhibition at 1000 µg/mL that meets 20% or exceeds it?
condition met

Does the compound COc1cc([C@H]2N[C@H](CO)[C@@H](O)[C@@H]2O)ccc1O have recorded inhibition at 1000 µg/mL that is 20% or more?
condition met

Assess whether reported inhibition at 1000 µg/mL for O[C@@H]1[C@@H]2[C@@H](O)[C@H](O)[C@@H](O)CN2C[C@H]1O [Compound 64, 2-α-hydroxycastanospermine] sits at 20% or higher.
condition not met

Record OCCN1C[C@@H](O)[C@H](O)[C@H]1CO ; criterion: inhibition at 1000 µg/mL no lower than 20%. Met?
condition not met

----------
# Experimental Target: β-D-glucosidase
# Assay: Glycosidase inhibition: β-D-glucosidase, almond
Quantity Name: Ki (µM)
Report as a plain number; the unit µM is understood.

Return Ki measured with β-D-glucosidase given this compound: O[C@H]1[C@H](O)[C@@H](O)CN2CC[C@H](O)[C@H]12 [Castanospermine (20), Castanospermine, reference compound]
9

----------
Can you tell me % inhibition, N-acetyl-β-gluc for the items I'm about to list?
# Tested on: N-acetyl-β-D-glucosaminidase
# Assay: Glycosidase inhibition: N-acetyl-β-D-glucosaminidase
# Type: biochemical, Bovine
# Assay Conditions: 1 mg/ml
# Description: All enzymes were purchased from Sigma, as were the appropriate p-nitrophenyl substrates. Assays were carried out in microtitre plates. […] The reactions were stopped with 0.4M glycine (pH 10.4) during the exponential phase of the reaction, which was determined at the beginning of the assay using blanks with water, which were incubated for a range of time periods to measure the reaction rate using 5 mM substrate solution. […]
Express the result in % but write the number alone.

Looking for the measured % inhibition, N-acetyl-β-gluc of OC[C@@H]1[C@@H](O)[C@H](O)[C@H]2[C@H](O)[C@@H](O)CN21 , can you help?
14

Query: % inhibition, N-acetyl-β-gluc; subject: OCCN1C[C@@H](O)[C@H](O)[C@H]1CO
6

If you can, please state the reported % inhibition, N-acetyl-β-gluc value of OC[C@H]1N[C@H](c2ccc(O)cc2)[C@@H](O)[C@@H]1O .
30

// query % inhibition, N-acetyl-β-gluc value for entry OCCN1[C@H](CO)[C@@H](O)[C@H](O)[C@H]1CO [N-hydroxyethyl DMDP]
13

For the molecule OCC1N[C@H](CO)[C@@H](O)[C@@H]1O (some centres unmarked) , what % inhibition, N-acetyl-β-gluc is on record?
25

Which value of % inhibition, N-acetyl-β-gluc has been reported for O[C@@H]1[C@@H]2[C@@H](O)[C@H](O)[C@@H](O)CN2C[C@H]1O [Compound 64, 2-α-hydroxycastanospermine] in the records?
21

# query: % inhibition, N-acetyl-β-gluc of entry OC[C@H]1[C@@H](O)[C@H](O)[C@@H]2[C@@H](O)[C@H](O)CN21 [Compound 21, 3,6,7,7a-tetraepi-casuarine]
27

Fill in: % inhibition, N-acetyl-β-gluc of OC[C@H]1[C@@H](O)[C@H](O)[C@H]2[C@H](O)[C@@H](O)CN21 [3-epi-casuarine (14), 3-epi-casuarine] is ___
−1

----------
# Tested on: β-D-glucosidase
# Assay: Glycosidase inhibition: β-D-glucosidase, almond
# Assay type: biochemical, Almonds (Prunus sp.)
# Assay Conditions: 1 mg/ml
Quantity Name: % inhibition, glucosidase (%)
Report only the number, with the unit % understood.

State the recorded % inhibition, glucosidase for this entry: OC[C@H]1[C@@H](O)[C@H](O)[C@@H]2[C@@H](O)[C@@H](O)CN21 [Compound 22, 3,7,7a-triepi-casuarine]
52

What value of measured % inhibition, glucosidase is listed for OC[C@@H]1[C@@H](O)[C@H](O)[C@H]2[C@H](O)[C@@H](O)CN21 ?
0

Bench note: what % inhibition, glucosidase did OC[C@H]1[C@@H](O)[C@H](O)[C@H]2[C@@H](O)[C@@H](O)CN21 [3,7-diepi-casuarine (10)] show?
5

Which value of % inhibition, glucosidase has been reported for OC[C@H]1[C@@H](O)[C@H](O)[C@H]2[C@H](O)[C@@H](O)CN21 [3-epi-casuarine (14), 3-epi-casuarine] in the records?
56

% inhibition, glucosidase lookup needed for OC[C@H]1[C@@H](O)[C@H](O)[C@@H]2[C@@H](O)[C@H](O)CN21 [Compound 21, 3,6,7,7a-tetraepi-casuarine] , thanks.
44

Using the record for O[C@H]1[C@H](O)[C@@H](O)CN2CC[C@H](O)[C@H]12 [Castanospermine (20), Castanospermine, reference compound] , report its % inhibition, glucosidase.
88

Give the measured % inhibition, glucosidase of OC[C@H]1[C@@H](O)[C@H](O)[C@H]2[C@@H](O)[C@H](O)CN21 [Compound 12, 3,6,7-triepi-casuarine] .
6

What does the record list as % inhibition, glucosidase for OC[C@@H]1[C@@H](O)[C@H](O)[C@H]2[C@@H](O)[C@@H](O)CN21 [7-epi-casuarine (11), 7-epi-casuarine] ?
30
